Values were extracted from ChEMBL document CHEMBL6083213.

runDescription: Microsomal stability in rat liver microsomes assessed as parent compound remaining measured after 30 mins
Type: ADME, Microsome
experimentalParameters: read-out: Stability
measuredAttribute: remaining at 0.5 h (%)
Give the quantity in %, number only.

Data request, read-out remaining at 0.5 h, for "CCCOc1cc2[nH]c(NC(=O)CC)nc2cc1F"
20

* * *

runDescription: AUC in Sprague-Dawley rat at 10 mg/kg, po
Type: ADME, organism-based
experimentalParameters: in vivo
measuredAttribute: AUC

Data request, read-out AUC, for "CCCOc1cc2[nH]c(NC(=O)CC)nc2cc1F"
2140 ng·h/mL

Data request, read-out AUC, for CCCOc1ccc2nc(NC(=O)OC)[nH]c2c1 [OXIBENDAZOLE]
10 ng·h/mL

Data request, read-out AUC, for "CCCOc1ccc2nc(NC(=O)NC)[nH]c2c1"
590 ng·h/mL

Data request, read-out AUC, for "CCCOc1ccc2nc(NC(=O)CC)[nH]c2c1"
930 ng·h/mL

* * *

runDescription: Volume of distribution at steady state in Sprague-Dawley rat at 2 mg/kg, iv
Assay type: ADME, organism-based
experimentalParameters: in vivo, read-out: Vdss
Please go through the items and note down their Vd.
Give the quantity in L/kg, number only.

Data request, read-out Vd, for "CCCOc1cc2[nH]c(NC(=O)CC)nc2cc1F"
0.6

Data request, read-out Vd, for CCCOc1ccc2nc(NC(=O)OC)[nH]c2c1 [OXIBENDAZOLE]
413

Data request, read-out Vd, for "CCCOc1ccc2nc(NC(=O)NC)[nH]c2c1"
2.8

Data request, read-out Vd, for "CCCOc1ccc2nc(NC(=O)CC)[nH]c2c1"
6.4

* * *

runDescription: Solubility of compound in 1 % DMSO-PBS buffer
Format: physicochemical
measuredAttribute: solubility (µM)
Give the quantity in µM, number only.

Data request, read-out solubility, for "CCCOc1cc2[nH]c(NC(=O)CC)nc2cc1F"
53

* * *

runDescription: Clearance in Sprague-Dawley rat at 2 mg/kg, iv
Assay type: ADME, organism-based
experimentalParameters: in vivo
Please go through the items and note down their clearance.
Give the quantity in mL/min/kg, number only.

Data request, read-out clearance, for "CCCOc1cc2[nH]c(NC(=O)CC)nc2cc1F"
38.5

Data request, read-out clearance, for "CCCOc1ccc2nc(NC(=O)CC)[nH]c2c1"
45.5

Data request, read-out clearance, for "CCCOc1ccc2nc(NC(=O)OC)[nH]c2c1"
350

Data request, read-out clearance, for "CCCOc1ccc2nc(NC(=O)NC)[nH]c2c1"
132

* * *

runDescription: Stability in rat plasma assessed as parent compound remaining after 4 hrs
Assay type: ADME, cell-free
experimentalParameters: read-out: Stability
measuredAttribute: remaining at 4 h (%)
Give the quantity in %, number only.

Data request, read-out remaining at 4 h, for "CCCOc1cc2[nH]c(NC(=O)CC)nc2cc1F"
95

* * *

Please go through the items and note down their half-life.
runDescription: Half life in Sprague-Dawley rat at 2 mg/kg, iv
Format: ADME, organism-based
experimentalParameters: in vivo
Give the quantity in h, number only.

Data request, read-out half-life, for "CCCOc1ccc2nc(NC(=O)NC)[nH]c2c1"
0.25

Data request, read-out half-life, for "CCCOc1ccc2nc(NC(=O)CC)[nH]c2c1"
18.6

Data request, read-out half-life, for CCCOc1ccc2nc(NC(=O)OC)[nH]c2c1 [OXIBENDAZOLE]
27

Data request, read-out half-life, for "CCCOc1cc2[nH]c(NC(=O)CC)nc2cc1F"
0.3

* * *

runDescription: Oral bioavailability in Sprague-Dawley rat at 10 mg/kg
Format: ADME, organism-based
experimentalParameters: in vivo
measuredAttribute: bioavailability (%)
Give the quantity in %, number only.

Data request, read-out bioavailability, for "CCCOc1ccc2nc(NC(=O)OC)[nH]c2c1"
2.6

Data request, read-out bioavailability, for "CCCOc1ccc2nc(NC(=O)NC)[nH]c2c1"
44

Data request, read-out bioavailability, for "CCCOc1cc2[nH]c(NC(=O)CC)nc2cc1F"
50

Data request, read-out bioavailability, for "CCCOc1ccc2nc(NC(=O)CC)[nH]c2c1"
25

* * *

Please go through the items and note down their Cmax.
runDescription: Cmax in Sprague-Dawley rat at 10 mg/kg, po
Type: ADME, organism-based
experimentalParameters: in vivo
Give the quantity in ng/mL, number only.

Data request, read-out Cmax, for "CCCOc1cc2[nH]c(NC(=O)CC)nc2cc1F"
2760

Data request, read-out Cmax, for CCCOc1ccc2nc(NC(=O)OC)[nH]c2c1 [OXIBENDAZOLE]
10

Data request, read-out Cmax, for "CCCOc1ccc2nc(NC(=O)NC)[nH]c2c1"
580

Data request, read-out Cmax, for "CCCOc1ccc2nc(NC(=O)CC)[nH]c2c1"
1560

* * *

runDescription: Microsomal stability in mouse liver microsomes assessed as parent compound remaining measured after 30 mins
Format: ADME, Microsome
experimentalParameters: read-out: Stability
measuredAttribute: remaining at 0.5 h
Kindly format the answer as number then unit.

Data request, read-out remaining at 0.5 h, for "CCCOc1cc2[nH]c(NC(=O)CC)nc2cc1F"
2.6%

* * *

runDescription: Plasma protein binding in mouse
Type: ADME, cell-free
experimentalParameters: read-out: PPB (converted)
measuredAttribute: fraction unbound
A bare number is all that is needed in reply.

Data request, read-out fraction unbound, for "CCCOc1cc2[nH]c(NC(=O)CC)nc2cc1F"
0.15
